Experiment: Cyclooxygenase enzyme assay (TLC method), COX-1
Format: biochemical, ovine
Conditions: second column headed COX-2; preincubation 90-120 min, [1-14C] arachidonic acid 50 μM; read-out: Inhibition of Cyclooxygenase Activity IC50 COX-2
pIC50: −log10 of the molar value.
Let's look at some compounds and their measured pIC50.

| compound | result_value |
| --- | --- |
| NS(=O)(=O)c1ccc(N2N=C(C(F)(F)F)CC2c2ccccc2)cc1 (centres unmarked) [Example 1] | > 4.00 |

Moving on to the next compound.
Name the recorded pIC50 for NS(=O)(=O)c1ccc(N2N=C(C(F)(F)F)CC2c2c[nH]c3ccccc23)cc1 (centres unmarked) [Example 24] .
> 4.00
